- system under test: S. pyogenes SKKanGAS, kanamycin survival, BacTiterGlo, 6 h
- assay notes: S. pyogenes SKKanGAS kanamycin growth inhibitors – SKKanGAS strain, luminescence, dose confirmation, streptokinase promoter inhibitor project, dose response (AID 1902);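 note: lower survival reflects blocked streptokinase promoter driving kanamycin resistance gene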
Activity calls are given as the source filed them.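 Rule for the calls: active = EC50 no more than a set limit of log units above the highest dose; inactive = the rest.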
Hi! Could you answer with just one of these? active, inactive

Field: example entries. Status: answers known.
> print(dat)
                               query.smiles                         system.under.test     class
1  O=C(O)CN1C(=O)/C(=C\c2cc(Br)ccc2OCc2ccccc2Cl)SC1=S  S. pyogenes SKKanGAS, kanamycin survival, BacTiterGlo, 6 h    active
2  CN1CCN(c2cc3c(cc2F)c(=O)c(C(=O)O)cn3CCF)CC1  S. pyogenes SKKanGAS, kanamycin survival, BacTiterGlo, 6 h    active
3  O=C(N/N=C/c1cc(Br)cc(Br)c1O)c1cccc(S(=O)(=O)N2CCOCC2)c1  S. pyogenes SKKanGAS, kanamycin survival, BacTiterGlo, 6 h    active
4       Oc1c(Br)cc(Br)cc1/C=N/Nc1ccc(Cl)nn1  S. pyogenes SKKanGAS, kanamycin survival, BacTiterGlo, 6 h    active
5  O=C(CSc1nnc(CNC(=O)c2ccc(F)cc2)o1)NCc1ccccc1Cl  S. pyogenes SKKanGAS, kanamycin survival, BacTiterGlo, 6 h  inactive

IN: Status in this test for COc1cnc(-c2ccccn2)nc1N(C)c1ccccc1 ?
OUT: active

IN: Field: outcome | Entry: O=C(NCc1ccccc1)C(=O)Nc1nc(-c2ccccc2)cs1
OUT: active

IN: State the result this test recorded for CCOC(=O)C(C(=O)OCC)c1cc(Br)c2noc3c2c1C(=O)c1ccccc1-3 .
OUT: active

IN: Per the records of this test, what outcome belongs to O=C(CCc1ccccc1)NNC(=S)NC(=O)c1ccc(Cl)cc1 ?
OUT: active

IN: Which outcome did this test record for the molecule CCC(CC)c1nnc(NC(=O)c2ccc3ccccc3n2)s1 ?
OUT: active

IN: Hello, I am checking results. What call was entered for Cc1cccc(NCC(=O)N/N=C\c2cccc(Oc3ccccc3)c2)c1 ?
OUT: active
